experiment: Absorbance wavelength maximum and molar extinction coefficient of substrate and reaction product; assay type: physicochemical; conditions: substrate
Below, each of the compounds is paired with its reported Substrate λmax value.
Field: numeric (nm). Do not append units.

* O=Cc1cc([N+](=O)[O-])ccc1O[C@@H]1O[C@H](CO)[C@H](O)[C@H](O)[C@H]1O | 298
* O=[N+]([O-])c1ccc(O[C@@H]2O[C@H](CO)[C@H](O)[C@H](O)[C@H]2O)cc1[N+](=O)[O-] [3,4 DNPG, 3,4-Dinitrophenyl-β-D-galactopyranoside] | 280
* COc1cc([N+](=O)[O-])ccc1O[C@@H]1O[C@H](CO)[C@H](O)[C@H](O)[C@H]1O | 298

Identify the reported Substrate λmax for the following entry. N#Cc1cc(O[C@@H]2O[C@H](CO)[C@H](O)[C@H](O)[C@H]2O)ccc1[N+](=O)[O-]
308

Indicate its recorded Substrate λmax; the compound in question is O=[N+]([O-])c1ccccc1O[C@@H]1O[C@H](CO)[C@H](O)[C@H](O)[C@H]1O [ONPG, o-nitrophenyl-β-D-galactopyranoside, reference compound]
315
